- Test system: Colon cancer organoid
- experimental.protocol: Optimized Dual-Glo assay to identify co-culture induced drug vulnerabilities using donated chemical probes and chemogenomics kinase set in O06 CRC organoid and F06 CAF mono and co-culture. […] Cell viability is reported both mono and co-culture models.
- Format: functional, Homo sapiens
- Design: dose or concentration left out as unconfirmed
- measurement.parameters: Culture type Mono-Culture; Transduced with Renilla-dsRed lentivirus
Square brackets hold non-standard residues; d marks the D form. Peptide text beside a SMILES is read from it. Arg(Me) = CNC(=N)NCCC[C@H](N)C(=O)O; d3Pal = N[C@H](Cc1cccnc1)C(=O)O; azaGly = NNC(=O)O
measured.quantity: Cell Viability

molecule | measured.quantity | result
O=C(NCCCN1CCOC1=O)c1cnc(NCc2cc(Br)ccc2Br)nc1NC1CCCC1 | Cell Viability | 185.402%
CCCc1cc(C)[nH]c(=O)c1CNC(=O)c1cc(-c2ccc(N3CCN(C(C)C)CC3)nc2)cc2c1cnn2C(C)C | Cell Viability | 88.1686%
CCc1ccccc1C(=O)Nc1n[nH]c2c(C)c(F)c(C3C(C#N)=C(C)N(C)C(C)=C3C#N)cc12 | Cell Viability | 82.828%
CC(=O)Nc1nc(CN2CCC[C@H](Cc3cc(C)nc(C)c3)C2)cs1 | Cell Viability | 124.842%
O=C(NCC(=O)N1CCCC1)Nc1ccc2cnccc2c1 | Cell Viability | 94.1078%
CNC(=N)NCCC[C@H](NC(=O)[C@H](CC(C)C)NC(=O)NNC(=O)[C@H](Cc1ccccc1)NC(=O)[C@H](CO)NC(=O)[C@H](CC(N)=O)NC(=O)[C@@H](Cc1cccnc1)NC(=O)[C@H](N)Cc1ccc(O)cc1)C(=O)NCC(N)=O [KISS1-543] (H-[dY][d3Pal]NSF[azaGly]L[Arg(Me)]G-NH2) | Cell Viability | 99.9886%
Cc1sc2c(c1C)C(c1ccc(Cl)cc1)=N[C@H](CC(=O)OC(C)(C)C)c1nnc(C)n1-2 | Cell Viability | 97.8447%
OCCn1cc(-c2cnc3nnn(Cc4ccc5ncccc5c4)c3n2)cn1 | Cell Viability | 94.3108%
CC(C)[C@H](C(=O)Nc1ccc(C(=O)NO)cc1)c1ccccc1 | Cell Viability | 486.211%
O=C(Nc1nc2cccc(-c3ccc(CN4CCS(=O)(=O)CC4)cc3)n2n1)C1CC1 | Cell Viability | 92.1067%
CCN1CCN(c2ccc(Nc3cc(N(C)C(=O)Nc4c(Cl)c(OC)cc(OC)c4Cl)ncn3)cc2)CC1 | Cell Viability | 113.181%
CC(=O)Nc1cccc(-n2c(=O)n(C3CC3)c(=O)c3c(Nc4ccc(I)cc4F)n(C)c(=O)c(C)c32)c1 | Cell Viability | 25.6485%
CCCc1cc(C)[nH]c(=O)c1CNC(=O)c1cc(-c2ccnc(N3CCN(C)CC3)c2)cc2c1cnn2C(C)C | Cell Viability | 104.205%
CCCOc1ccn2c(C(C)=O)cc(-c3cccc(OC)c3)c2c1 | Cell Viability | 119.651%
COc1cc(Nc2nccc(-c3cnn4nc(OC)ccc34)n2)cc(C(F)(F)F)c1 | Cell Viability | 49.3331%
Cc1cnc(Nc2ccc(F)cc2Cl)nc1-c1c[nH]c(C(=O)N[C@H](CO)c2cccc(Cl)c2)c1 | Cell Viability | 57.8689%

----------
- Test system: Colon cancer organoid
- experimental.protocol: Optimized Dual-Glo assay to identify co-culture induced drug vulnerabilities using donated chemical probes and chemogenomics kinase set in O14 CRC organoid and F14 CAF mono and co-culture. […] Cell viability is reported both mono and co-culture models.
- Format: functional, Homo sapiens
- Set-up: dose or concentration left out as unconfirmed
- measurement.parameters: Culture type Mono-Culture; Transduced with Renilla-dsRed lentivirus
Cell Viability by entry:
measured.quantity: Cell Viability (%)

compound | assayed.target | measured.quantity | quantitative.readout
COc1ncc(-c2ccc3nccc(-c4ccnnc4)c3c2)cc1NS(=O)(=O)c1ccc(F)cc1F [OMIPALISIB] | Colon cancer organoid | Cell Viability | 44.5325
Cc1c(Nc2ccc(S(=O)(=O)N3CCN(C)CC3)cc2F)nc2ccc(Nc3cnn(C4CC4)c3)cn2c1=O | Colon cancer organoid | Cell Viability | 101.792
CC(C)S(=O)(=O)c1ccc2nccc(Nc3ccc4scnc4c3)c2c1 | Colon cancer organoid | Cell Viability | 100.536
CN(C)C(=O)Cn1cc(-c2nc(C3(c4ccc(-c5cnc(N)nc5)cc4)CC3)no2)cn1 [BI 0153] | Colon cancer organoid | Cell Viability | 95.7431
Cc1cc2c(-c3ccco3)cnc(N[C@@H]3CCN(C)C[C@H]3C(=O)NC3CCCCC3)c2[nH]c1=O [GSK789] | Colon cancer organoid | Cell Viability | 143.743
Cc1c(NC(=O)COc2ccc(Cl)cc2C(=O)c2cc(F)cc(C(F)(F)F)c2)ccc(C(=O)O)c1F [BI 2540] | Colon cancer organoid | Cell Viability | 101.06
CCOC(=O)c1c(/C(C#N)=C\N)c2ccc(Cl)c(Cl)c2n1C | Colon cancer organoid | Cell Viability | 76.1592
CNC(=O)c1ccccc1Nc1cc(Nc2ccc(N3CCOCC3)cc2OC)ncc1C(F)(F)F [VS-4718] | Colon cancer organoid | Cell Viability | 46.526
COc1ccc(CCc2nc3cc(-c4c(C)noc4C)ccc3n2C[C@H](C)N2CCOCC2)cc1Cl | Colon cancer organoid | Cell Viability | 138.359
CCCCN(Cc1ccccc1)C(=O)c1ccc(S(=O)(=O)Nc2ccccc2)cc1 | Colon cancer organoid | Cell Viability | 103.133
CN1CCN(c2ccc(OC(F)(F)F)c(Nc3ncc4c(n3)-c3c(c(C(N)=O)nn3CCO)CC4)c2)CC1 [ONVANSERTIB] | Colon cancer organoid | Cell Viability | 81.4434
COc1ccccc1-c1cc(N2CCN(C(=O)OC(C)(C)C)CC2)c(N)nn1 | Colon cancer organoid | Cell Viability | 98.4172
O=C(CCCCCCNC(=O)c1cnc(N(c2ccccc2)c2ccccc2)nc1)NO [RICOLINOSTAT] | Colon cancer organoid | Cell Viability | 101.457
CCNC(=O)c1cc2c(N3CCOCC3C)ccnc2[nH]1 (stereo not drawn) | Colon cancer organoid | Cell Viability | 81.9796
CN(C)[C@H]1CN(C2CCc3cccc(F)c32)C[C@@H]1c1ccc(N2CCN(S(C)(=O)=O)CC2)cc1 (stereo partly drawn) | Colon cancer organoid | Cell Viability | 110.303
CCCOc1ccn2c(C(C)=O)cc(-c3ccccc3S(C)(=O)=O)c2c1 | Colon cancer organoid | Cell Viability | 97.3869
CC(C)(C)c1cc(NC(=O)Nc2ccc(-c3cn4c(n3)sc3cc(OCCN5CCOCC5)ccc34)cc2)no1 [QUIZARTINIB] | Colon cancer organoid | Cell Viability | 89.2922
O=C(NCc1ncc(C(F)(F)F)cc1Cl)c1ccc2c(c1)C1(CCS(=O)(=O)CC1)[C@@H](C1CC1)N2S(=O)(=O)c1ccc(F)cc1 [BAY-786] | Colon cancer organoid | Cell Viability | 104.267

----------
Cell Viability by entry:
- System: Colon cancer organoid
- experimental.protocol: Optimized Dual-Glo assay to identify co-culture induced drug vulnerabilities using donated chemical probes and chemogenomics kinase set in O06 CRC organoid and F06 CAF mono and co-culture. […] Cell viability is reported both mono and co-culture models.
- Format: functional, Homo sapiens
- Set-up: dose or concentration left out as unconfirmed
- measurement.parameters: Culture type Co-Culture; Transduced with Renilla-dsRed lentivirus

compound | Cell Viability, %
Cl.Cl.NC1(c2ccc(-c3nc4ccn5c(=O)[nH]nc5c4cc3-c3ccccc3)cc2)CCC1 | 91.614
Cc1ccc2[nH]c(CNCCCc3ccncc3)cc(=O)c2c1 [UCSF924NC] | 82.507
CC(C)C(=O)Nc1n[nH]c2cc(-c3cccc(NS(=O)(=O)C4CC4)c3)ccc12 | 134.333
C[C@@H](NC(=O)Nc1cc2[nH]ncc2c(CO)n1)c1ccccc1 [ERKi] | 104.277
Cn1c(-c2csc(C3CCN(CC4=NC5N=CC=CC5N4)CC3)n2)nc2ccccc21 (stereo not drawn) [BAY-070] | 49.5381
CCn1cc(-c2cccc(C(F)(F)F)c2)c2sc(C(=N)NC3CCS(=O)(=O)CC3)cc2c1=O | 165.165
O=C1CCc2cc(Nc3cc(OC4CCOCC4)c([N+](=O)[O-])cc3Cl)ccc2N1 | 126.115
CCCc1cc(C)[nH]c(=O)c1CNC(=O)c1cc(-c2ccnc(N3CCN(C)CC3)c2)cc2c1cnn2C(C)C | 125.188
COc1cc(Nc2nccc(-c3cnn4nc(OC)ccc34)n2)cc(C(F)(F)F)c1 | 199.418
COc1ccc(Oc2cc(NCCC(F)(F)F)c3ncc(-c4ccc(C(=O)NC5CC5)c(C)c4)n3n2)c(F)c1F [BAY-1217389] | 100.303
COc1cccc2c1C(=O)c1c(O)c3c(c(O)c1C2=O)CC(O)(C(=O)CO)CC3OC1CC(N)C(O)C(C)O1.Cl (stereo not drawn) | 235.56
O=C(O)[C@@H]1[C@@H](Cn2nnc3ccccc3c2=O)CC[C@H]1C(=O)c1ccc(OCCC2CCOCC2)cc1 [BAY-694] | 144.793
CO[C@@H](C)c1c(Nc2ccc([C@@H](N(C)C(=O)C3CCS(=O)(=O)CC3)C(F)(F)F)cc2)cnc2cc(Cl)nn12 [NVS-MALT1-C] | 73.6522
CCOC(=O)CCNc1cc(N2CCc3ccccc3CC2)nc(-c2ccccn2)n1 | 116.98
Cc1ncsc1-c1ccc(CNC(=O)[C@@H]2C[C@@H](O)CN2C(=O)[C@@H](NC(=O)CCCCNC(=O)c2ccc(-c3ccc(N4CCN(C)CC4)c(NC(=O)c4c[nH]c(=O)cc4C(F)(F)F)c3)cc2)C(C)(C)C)cc1 | 85.2238
CN(C)C(=O)N1CC[C@H](NC2=Nc3cc(F)ccc3N(CC(F)F)c3ccc(Cl)cc32)C1 | 159.783
Cl.Cl.Cl.c1ccc(N2CCN(Cc3nc4ccccc4[nH]3)CC2)nc1 | 162.508
COc1ccc2c(c1)O[C@@H](c1ccc(OC)c(OC)c1)C[C@H]2NC(=O)C1(c2ccc3c(c2)OC(F)(F)O3)CC1 [A-1596586] | 117.187
C[C@@H](Oc1cc(-n2cnc3ccc(CN4CCN(C)CC4)cc32)sc1C(N)=O)c1ccccc1C(F)(F)F [GSK-461364] | 127.3
N#Cc1cnc(Nc2cc(NC[C@H]3CNCCO3)c(C(F)(F)F)cn2)cn1 [SRA-737] | 120.027
Cc1cc(=O)n(C)c2cc(N3C(=O)CC[C@H](NS(=O)(=O)CC(C)C)[C@H]3c3ccc(Cl)cc3)ccc12 | 167.751
CC(=O)Nc1nc(CN2CCC[C@H](Cc3cc(C)nc(C)c3)C2)cs1 [JNJ-73924149] | 72.9092
Cc1ccc(-c2ccc3c(ccc4sc5c(c43)NC[C@@H](C)NC5=O)n2)cn1 | 85.371
CC(C)(C#Cc1ccc(NC(=O)COc2ccccc2C(=O)c2ccccc2)c(Cl)c1)C(=O)O [BI 2439] | 98.9732
COc1cc(OC)cc(-c2noc(N3CCN(C)C4(CCN(c5ccnc(C)c5)CC4)C3)n2)c1 | 136.172
COc1cc(N2CCC(O)CC2)ccc1Nc1cc(Nc2ccccc2S(=O)(=O)C(C)C)c2cc[nH]c2n1 | 81.2438
O=C(NC[C@@H]1[C@H]2CN(C(=O)OCc3cc(C(F)(F)F)cc(C(F)(F)F)c3)C[C@@H]12)c1ccc2[nH]nnc2c1 [BI 2545] | 144.467
CN1C[C@H](Nc2cnn(C)c(=O)c2Br)C[C@H](c2ccccc2)C1 | 181.327
CN1CCN(c2ccnc(NCCc3ccccc3)n2)CC1 [TP-040n] | 81.2059
CC(=O)Nc1c(F)cc(C(=O)N[C@H]2CC[C@H](O)CC2)cc1O[C@@H](C)c1ccccc1 [GSK046] | 157.689
CN(C)CCCOc1ccc(-c2cc(NCCCn3cccn3)nc(S(C)(=O)=O)n2)cc1 | 129.443
CN1CCN(c2ccc(-c3cccc(CN4CCOCC4)c3)cc2NC(=O)c2c[nH]c(=O)cc2C(F)(F)F)CC1 | 122.014
CNC(=O)c1ccc(Nc2ncc(C(F)(F)F)c(NCc3nccnc3N(C)S(C)(=O)=O)n2)cc1 [DEFACTINIB] | 116.047
